- MEASURED_TARGET: T1, extracellular domain of human CD79b (human, UniProt P40259 29-159)
- T1 construct: also called huCD79becd; huCD79b-ecd
- T1 sequence: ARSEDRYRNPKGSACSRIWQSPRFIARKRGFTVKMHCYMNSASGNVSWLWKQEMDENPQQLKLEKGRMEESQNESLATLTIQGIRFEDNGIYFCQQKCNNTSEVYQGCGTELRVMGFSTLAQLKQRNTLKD
- ASSAY: phage selection, Fab on phage, plate-bound huCD79becd
ASSAY_METRIC: binding result

>>> observed_value("huMA79b graft variant SEQ ID NO: 72 (Fab, name in Kabat numbering, V domains shown, Fab on phage; rest as huMA79b graft) VH: EVQLVESGGGLVQPGGSLRLSCAASGYTFRRYWINWVRQAPGKGLEWVGEILPGGGDTNYNEIFKGRFTISADTSKNTAYLQMNSLRAEDTAVYYCTRRVPVYFDYWGQGTLVTVSS VL: DIQMTQSPSSLSASVGDRVTITCKASQSVDYDGDSFLNWYQQKPGKAPKLLIYAASNLESGVPSRFSGSGSGTDFTLTISSLQPEDFATYYCQQSNEDPLTFGQGTKVEIKR")
"binds"
>>> observed_value("huMA79b graft variant SEQ ID NO: 17 (Fab, name in Kabat numbering, V domains shown, Fab on phage; rest as huMA79b graft; also called SPL-2 mutation) VH: EVQLVESGGGLVQPGGSLRLSCAASGYTFSSYWIEWVRQAPGKGLEWVGEILPGGGDTNYNEIFKGRFTISADTSKNTAYLQMNSLRAEDTAVYYCTRRVPVYFDYWGQGTLVTVSS VL: DIQMTQSPSSLSASVGDRVTITCKASKSVDYDGDSFLNWYQQKPGKAPKLLIYAASNLESGVPSRFSGSGSGTDFTLTISSLQPEDFATYYCQQSNEDPLTFGQGTKVEIKR")
"binds"
>>> observed_value("huMA79b graft variant SEQ ID NO: 85 (Fab, name in Kabat numbering, V domains shown, Fab on phage; rest as huMA79b graft) VH: EVQLVESGGGLVQPGGSLRLSCAASGFPFTSYWISWVRQAPGKGLEWVGEILPGGGDTNYNEIFKGRFTISADTSKNTAYLQMNSLRAEDTAVYYCTRRVPVYFDYWGQGTLVTVSS VL: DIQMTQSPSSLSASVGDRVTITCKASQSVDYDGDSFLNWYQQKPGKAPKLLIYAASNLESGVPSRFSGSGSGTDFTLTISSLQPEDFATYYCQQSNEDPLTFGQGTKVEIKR")
"binds"

Numbers sourced from patent USRE48558.
